molecular target: T1, HLA class I molecule A03.01; test: competition with radiolabeled reference peptide on purified MHC I
T1 construct: Purified MHC class I complex; also called HLA-A03:01
measuredEndpoint: pIC50
Would you please state pIC50, meaning minus log10 of the concentration in mol/L, as a bare number?

| binder | measuredEndpoint | reportedMeasurement |
| --- | --- | --- |
| KIMFATLQR (also called GATA3 . . ; CSNH) | pIC50 | 8.60 |
| YMFLKAESK (also called GATA3 . . ; CSNH) | pIC50 | 7.10 |
| KVSRENTSPK (also called HER2, L7555) | pIC50 | 8.15 |
| AISTRDPLSK (also called PIK3CA, E542K) | pIC50 | 7.24 |

[ask] pIC50 lookup needed for FFFCWILSCK (also called NDUFC2 (-KCDT14)(+1)) , thanks.
[reply] 6.22

[ask] May I ask what pIC50 has been recorded for VLWTTPPLQH (also called GATA3 . . ; CSNH) ?
[reply] 7.80

[ask] Quick one: pIC50 for FFCWILSCK (also called NDUFC2 (-KCDT14)(+1)) ?
[reply] 6.73
